# Test system: tg(cyp19a1b:GFP) zebrafish embryos
# method_notes: Refined FET: developmental effects / malformations
# Format: in vivo, zebrafish (Danio rerio)
# measurement_conditions: Danio rerio; nominal; end of 96 h exposure; read-out: EC50 malformations (cumulative sublethal end points)
Category key, based on recorded EC50: class A (below 1 µg/mL), class B (1 µg/mL to below 6 µg/mL), class C (6 µg/mL or more)

Prompt line: Hi there! Could you help me figure out the category for Oc1ccc(Oc2ccc(O)cc2)cc1 [4,4’-ODP, 4-(4-hydroxyphenoxy)phenol] please?
Response line: class A

Prompt line: Hi there! Could you help me figure out the category for Oc1ccc(C(=C(Cl)Cl)c2ccc(O)cc2)cc1 please?
Response line: class B

* * *

# Tested on: tg(cyp19a1b:GFP) zebrafish embryos
# method_notes: Refined FET: developmental effects / malformations
# Assay type: in vivo, zebrafish (Danio rerio)
# measurement_conditions: nominal
assay_readout: LOEC no blood tail circulation (mg/L)
Please give a number only; it is taken to be in mg/L.

Solved cases below.
CC(C)(c1cc(Cl)c(O)c(Cl)c1)c1cc(Cl)c(O)c(Cl)c1	1
Cc1cc(C(C)(C)c2ccc(O)c(C)c2)ccc1O	8.53
C=CCOc1ccc(S(=O)(=O)c2ccc(O)cc2)cc1	33.3

Prompt line: Give LOEC no blood tail circulation for the following compound: Oc1ccc(C(=C(Cl)Cl)c2ccc(O)cc2)cc1
Response line: 8.89

Prompt line: Give LOEC no blood tail circulation for the following compound: Oc1ccc(Oc2ccc(O)cc2)cc1 [4,4’-ODP, 4-(4-hydroxyphenoxy)phenol]
Response line: 8.89

Prompt line: Give LOEC no blood tail circulation for the following compound: Oc1ccc(Cc2ccc(O)cc2)cc1 [BPF, 4-[(4-hydroxyphenyl)methyl]phenol]
Response line: 60

* * *

# Tested on: tg(cyp19a1b:GFP) zebrafish embryos
# method_notes: Refined FET: developmental effects / malformations
# Format: in vivo, zebrafish (Danio rerio)
# measurement_conditions: nominal; at least 10% of embryos affected
assay_readout: LOEC deformity of yolk (mg/L)
Please give a number only; it is taken to be in mg/L.

Solved cases below.
Oc1ccc(Cc2ccc(O)cc2)cc1 [BPF, 4-[(4-hydroxyphenyl)methyl]phenol]	15
Oc1ccc(Oc2ccc(O)cc2)cc1 [4,4’-ODP, 4-(4-hydroxyphenoxy)phenol]	2.96
CC(C)(c1ccc(O)cc1)c1ccc(O)cc1 [BPA]	20

Moving on to the next molecule.
Prompt line: Give LOEC deformity of yolk for the following molecule: CCC(C)(c1ccc(O)cc1)c1ccc(O)cc1 [BPB, 4-[2-(4-hydroxyphenyl)butan-2-yl] phenol]
Response line: 10

* * *

# Test system: tg(cyp19a1b:GFP) zebrafish embryos
# method_notes: Refined FET: developmental effects / malformations
# Format: in vivo, zebrafish (Danio rerio)
# measurement_conditions: nominal
Overview of reported LOEC tail/spinal malformations across a group of molecules:
Please give a number only; it is taken to be in mg/L.

Solved cases below.
CC(C)(c1ccc(O)cc1)c1ccc(O)cc1	10
Oc1ccc(Oc2ccc(O)cc2)cc1 [4,4’-ODP, 4-(4-hydroxyphenoxy)phenol]	2.96

Moving on to the next molecule.
Prompt line: Give LOEC tail/spinal malformations for the following molecule: Oc1ccc(C(=C(Cl)Cl)c2ccc(O)cc2)cc1
Response line: 8.89

* * *

# System: tg(cyp19a1b:GFP) zebrafish embryos
# method_notes: Refined FET: developmental effects / malformations
# Type: in vivo, zebrafish (Danio rerio)
# measurement_conditions: nominal
assay_readout: log10 LOEC edema (log10 of the value in mg/L)
For clarity, the numbers are log10 values of LOEC edema expressed in mg/L.

Oc1ccc(C(=C(Cl)Cl)c2ccc(O)cc2)cc1 [BPC-Cl]	0.00
Oc1ccc(Cc2ccc(O)cc2)cc1 [BPF, 4-[(4-hydroxyphenyl)methyl]phenol]	1.18
CCC(C)(c1ccc(O)cc1)c1ccc(O)cc1 [BPB, 4-[2-(4-hydroxyphenyl)butan-2-yl] phenol]	0.70
CC(C)(c1ccc(O)cc1)c1ccc(O)cc1 [BPA]	1.00
Oc1ccc(Oc2ccc(O)cc2)cc1 [4,4’-ODP, 4-(4-hydroxyphenoxy)phenol]	0.00

Prompt line: Give log10 LOEC edema for the following molecule: C=CCOc1ccc(S(=O)(=O)c2ccc(O)cc2)cc1 [BPS-MAE, 4-(4-prop-2-enoxyphenyl)sulfonylphenol]
Response line: 1.52

Prompt line: Give log10 LOEC edema for the following molecule: CC(C)(c1cc(Cl)c(O)c(Cl)c1)c1cc(Cl)c(O)c(Cl)c1 [TCBPA, Tetrachloro-bisphenol A]
Response line: -0.30
